# System: Acinetobacter baumannii strains
# experimental.protocol: Antibiotic susceptibility test (CLSI disk diffusion test method, read per CLSI 2016)
# Format: cell-based
# assay.context: host strain YMC16/07/R2512
reported.property: susceptibility category (S/I/R)

Example results:
smiles.text	value.reported
C[C@@H](O)[C@H]1C(=O)N2C(C(=O)O)=C(S[C@@H]3CN[C@H](C(=O)N(C)C)C3)[C@H](C)[C@H]12	R
CN(C)c1ccc(O)c2c1C[C@H]1C[C@H]3[C@H](N(C)C)C(O)=C(C(N)=O)C(=O)[C@@]3(O)C(O)=C1C2=O	S
CO/N=C(\C(=O)N[C@@H]1C(=O)N2C(C(=O)O)=C(COC(C)=O)CS[C@H]12)c1csc(N)n1	R
CC(C)(O/N=C(\C(=O)N[C@@H]1C(=O)N2C(C(=O)[O-])=C(C[n+]3ccccc3)CS[C@H]12)c1csc(N)n1)C(=O)O	R
CN(C)c1cc(NC(=O)CNC(C)(C)C)c(O)c2c1C[C@H]1C[C@H]3[C@H](N(C)C)C(O)=C(C(N)=O)C(=O)[C@@]3(O)C(O)=C1C2=O	S

Complete the entry with susceptibility category (S/I/R) for `C[C@H]1COc2c(N3CCN(C)CC3)c(F)cc3c(=O)c(C(=O)O)cn1c23`
R

Could you please provide reported susceptibility category (S/I/R) for `C[C@@H](O)[C@H]1C(=O)N2C(C(=O)O)=C(SCCN=CN)C[C@H]12` ? Thanks!
R

Determine its reported susceptibility category (S/I/R): `CCN1CCN(C(=O)N[C@@H](C(=O)N[C@@H]2C(=O)N3[C@@H]2SC(C)(C)[C@@H]3C(=O)O)c2ccccc2)C(=O)C1=O`
R

Consider the molecule `NCC[C@H](O)C(=O)N[C@@H]1C[C@H](N)[C@@H](O[C@H]2O[C@H](CN)[C@@H](O)[C@H](O)[C@H]2O)[C@H](O)[C@H]1O[C@H]1O[C@H](CO)[C@@H](O)[C@H](N)[C@H]1O` and give its recorded susceptibility category (S/I/R).
R

----------
# System: Acinetobacter baumannii strains
# experimental.protocol: Antibiotic susceptibility test (CLSI disk diffusion test method, read per CLSI 2016)
# Type: cell-based
# assay.context: host strain YMC14/02/R1860

smiles.text	antibiotic susceptibility class
CN(C)c1ccc(O)c2c1C[C@H]1C[C@H]3[C@H](N(C)C)C(O)=C(C(N)=O)C(=O)[C@@]3(O)C(O)=C1C2=O	S
C[C@@H](O)[C@H]1C(=O)N2C(C(=O)O)=C(S[C@@H]3CN[C@H](C(=O)N(C)C)C3)[C@H](C)[C@H]12	R
NCC[C@H](O)C(=O)N[C@@H]1C[C@H](N)[C@@H](O[C@H]2O[C@H](CN)[C@@H](O)[C@H](O)[C@H]2O)[C@H](O)[C@H]1O[C@H]1O[C@H](CO)[C@@H](O)[C@H](N)[C@H]1O	S

----------
# Tested on: Acinetobacter baumannii strains
# experimental.protocol: Antibiotic susceptibility test (CLSI disk diffusion test method, read per CLSI 2016)
# Type: cell-based
# assay.context: host strain YMC14/01/R160

smiles.text	antibiotic susceptibility class
C[C@H]1COc2c(N3CCN(C)CC3)c(F)cc3c(=O)c(C(=O)O)cn1c23	R
C[C@@H](O)[C@H]1C(=O)N2C(C(=O)O)=C(S[C@@H]3CN[C@H](C(=O)N(C)C)C3)[C@H](C)[C@H]12	R
CC(C)(O/N=C(\C(=O)N[C@@H]1C(=O)N2C(C(=O)[O-])=C(C[n+]3ccccc3)CS[C@H]12)c1csc(N)n1)C(=O)O	R

----------
# Tested on: Acinetobacter baumannii strains
# experimental.protocol: Antibiotic susceptibility test (CLSI disk diffusion test method, read per CLSI 2016)
# Format: cell-based
# assay.context: host strain YMC14/02/R2781
reported.property: antibiotic susceptibility class

smiles.text	antibiotic susceptibility class
C[C@@H](O)[C@H]1C(=O)N2C(C(=O)O)=C(SCCN=CN)C[C@H]12	R
CCN1CCN(C(=O)N[C@@H](C(=O)N[C@@H]2C(=O)N3[C@@H]2SC(C)(C)[C@@H]3C(=O)O)c2ccccc2)C(=O)C1=O	R
CC(C)(O/N=C(\C(=O)N[C@@H]1C(=O)N2C(C(=O)[O-])=C(C[n+]3ccccc3)CS[C@H]12)c1csc(N)n1)C(=O)O	R
C[C@@H](O)[C@H]1C(=O)N2C(C(=O)O)=C(S[C@@H]3CN[C@H](C(=O)N(C)C)C3)[C@H](C)[C@H]12	R
CN(C)c1ccc(O)c2c1C[C@H]1C[C@H]3[C@H](N(C)C)C(O)=C(C(N)=O)C(=O)[C@@]3(O)C(O)=C1C2=O	S
CO/N=C(\C(=O)N[C@@H]1C(=O)N2C(C(=O)O)=C(COC(C)=O)CS[C@H]12)c1csc(N)n1	R

Answer with antibiotic susceptibility class of `CN(C)c1cc(NC(=O)CNC(C)(C)C)c(O)c2c1C[C@H]1C[C@H]3[C@H](N(C)C)C(O)=C(C(N)=O)C(=O)[C@@]3(O)C(O)=C1C2=O` measured for Acinetobacter baumannii strains.
S

Consider the molecule `C[C@H]1COc2c(N3CCN(C)CC3)c(F)cc3c(=O)c(C(=O)O)cn1c23` tested on Acinetobacter baumannii strains; state its antibiotic susceptibility class.
R

Please tell me the measured antibiotic susceptibility class for `NCC[C@H](O)C(=O)N[C@@H]1C[C@H](N)[C@@H](O[C@H]2O[C@H](CN)[C@@H](O)[C@H](O)[C@H]2O)[C@H](O)[C@H]1O[C@H]1O[C@H](CO)[C@@H](O)[C@H](N)[C@H]1O` ; system: Acinetobacter baumannii strains.
R

----------
# System: Acinetobacter baumannii strains
# experimental.protocol: Antibiotic susceptibility test (CLSI disk diffusion test method, read per CLSI 2016)
# Format: cell-based
# assay.context: host strain YMC17/02/B721

smiles.text	antibiotic susceptibility S/I/R
C[C@@H](O)[C@H]1C(=O)N2C(C(=O)O)=C(S[C@@H]3CN[C@H](C(=O)N(C)C)C3)[C@H](C)[C@H]12	R
CO/N=C(\C(=O)N[C@@H]1C(=O)N2C(C(=O)O)=C(COC(C)=O)CS[C@H]12)c1csc(N)n1	R
CC(C)(O/N=C(\C(=O)N[C@@H]1C(=O)N2C(C(=O)[O-])=C(C[n+]3ccccc3)CS[C@H]12)c1csc(N)n1)C(=O)O	R

----------
# Test system: Acinetobacter baumannii strains
# experimental.protocol: Antibiotic susceptibility test (CLSI disk diffusion test method, read per CLSI 2016)
# Type: cell-based
# assay.context: host strain YMC17/02/B721
reported.property: antibiotic susceptibility S/I/R

See these solved cases before continuing.
smiles.text	value.reported
CCN1CCN(C(=O)N[C@@H](C(=O)N[C@@H]2C(=O)N3[C@@H]2SC(C)(C)[C@@H]3C(=O)O)c2ccccc2)C(=O)C1=O	R
CN(C)c1cc(NC(=O)CNC(C)(C)C)c(O)c2c1C[C@H]1C[C@H]3[C@H](N(C)C)C(O)=C(C(N)=O)C(=O)[C@@]3(O)C(O)=C1C2=O	S
NCC[C@H](O)C(=O)N[C@@H]1C[C@H](N)[C@@H](O[C@H]2O[C@H](CN)[C@@H](O)[C@H](O)[C@H]2O)[C@H](O)[C@H]1O[C@H]1O[C@H](CO)[C@@H](O)[C@H](N)[C@H]1O	R
C[C@@H](O)[C@H]1C(=O)N2C(C(=O)O)=C(SCCN=CN)C[C@H]12	R
C[C@H]1COc2c(N3CCN(C)CC3)c(F)cc3c(=O)c(C(=O)O)cn1c23	R

Pending compound:
Give antibiotic susceptibility S/I/R for `CN(C)c1ccc(O)c2c1C[C@H]1C[C@H]3[C@H](N(C)C)C(O)=C(C(N)=O)C(=O)[C@@]3(O)C(O)=C1C2=O`
S

----------
# System: Acinetobacter baumannii strains
# experimental.protocol: Antibiotic susceptibility test (CLSI disk diffusion test method, read per CLSI 2016)
# Assay type: cell-based
# assay.context: host strain YMC14/01/R3129

smiles.text	antibiotic susceptibility class
CCN1CCN(C(=O)N[C@@H](C(=O)N[C@@H]2C(=O)N3[C@@H]2SC(C)(C)[C@@H]3C(=O)O)c2ccccc2)C(=O)C1=O	R
CO/N=C(\C(=O)N[C@@H]1C(=O)N2C(C(=O)O)=C(COC(C)=O)CS[C@H]12)c1csc(N)n1	R
CC(C)(O/N=C(\C(=O)N[C@@H]1C(=O)N2C(C(=O)[O-])=C(C[n+]3ccccc3)CS[C@H]12)c1csc(N)n1)C(=O)O	R

----------
# Test system: Acinetobacter baumannii strains
# experimental.protocol: Antibiotic susceptibility test (CLSI disk diffusion test method, read per CLSI 2016)
# Type: cell-based
# assay.context: host strain YMC14/01/R324
# Description: Strain identification was performed using a kit such as AT 32 GN system (bioMérieux, Marcy l'Etoile, France). […] In Table 2 below, S, I, and R are the results obtained by evaluating susceptibility to the antibacterial agents, in which ‘S’ means susceptible, ‘I’ means intermediate, and ‘R’ means resistant. Strain identification was performed using a kit such as ATB 32 GN system (bioMédrieux, Marcy l'Etoile, France). […]
reported.property: antibiotic susceptibility class

Solved entries (count: 8):
compound	tested.target	antibiotic susceptibility class
C[C@@H](O)[C@H]1C(=O)N2C(C(=O)O)=C(S[C@@H]3CN[C@H](C(=O)N(C)C)C3)[C@H](C)[C@H]12 [Meropenem, meropenem]	Acinetobacter baumannii strains	R
CO/N=C(\C(=O)N[C@@H]1C(=O)N2C(C(=O)O)=C(COC(C)=O)CS[C@H]12)c1csc(N)n1 [Cefotaxime, cefotaxime]	Acinetobacter baumannii strains	R
CN(C)c1ccc(O)c2c1C[C@H]1C[C@H]3[C@H](N(C)C)C(O)=C(C(N)=O)C(=O)[C@@]3(O)C(O)=C1C2=O [Minocycline, minocycline]	Acinetobacter baumannii strains	S
CC(C)(O/N=C(\C(=O)N[C@@H]1C(=O)N2C(C(=O)[O-])=C(C[n+]3ccccc3)CS[C@H]12)c1csc(N)n1)C(=O)O [Ceftazidime, ceftazidime]	Acinetobacter baumannii strains	R
NCC[C@H](O)C(=O)N[C@@H]1C[C@H](N)[C@@H](O[C@H]2O[C@H](CN)[C@@H](O)[C@H](O)[C@H]2O)[C@H](O)[C@H]1O[C@H]1O[C@H](CO)[C@@H](O)[C@H](N)[C@H]1O [Amikacin, amikacin]	Acinetobacter baumannii strains	R
C[C@H]1COc2c(N3CCN(C)CC3)c(F)cc3c(=O)c(C(=O)O)cn1c23 [Levofloxacin, levofloxacin]	Acinetobacter baumannii strains	R
C[C@@H](O)[C@H]1C(=O)N2C(C(=O)O)=C(SCCN=CN)C[C@H]12 [Imipenem, imipenem]	Acinetobacter baumannii strains	R
CCN1CCN(C(=O)N[C@@H](C(=O)N[C@@H]2C(=O)N3[C@@H]2SC(C)(C)[C@@H]3C(=O)O)c2ccccc2)C(=O)C1=O [Piperacillin, piperacillin]	Acinetobacter baumannii strains	R

Please examine the following record next.
Check the records and state antibiotic susceptibility class for CN(C)c1cc(NC(=O)CNC(C)(C)C)c(O)c2c1C[C@H]1C[C@H]3[C@H](N(C)C)C(O)=C(C(N)=O)C(=O)[C@@]3(O)C(O)=C1C2=O [Tigecycline, tigecycline]
S
